# Tested on: Rattus norvegicus
# Assay name: Antiinflammatory activity in Wistar rat assessed as inhibition of carrageenan-induced hind paw edema at 100 mg/kg, po administered as gum arabic suspension 30 mins prior to carrageenin injection measured 3 hrs post-carrageenin injection
# Assay type: functional
Give criterion met when the value for inhibition in vivo at 100 mg/kg is at least 30%. Give criterion not met when it is less.

Examples with answers:
>>> class_assignment("CCOc1cc(C(=O)N2CCOCC2)nn1-c1ccccc1")
"criterion met"
>>> class_assignment("CCOc1cc(C(=O)N(C)C)nn1-c1ccccc1")
"criterion met"
>>> class_assignment("CCCCOc1cc(C(=O)NCC)nn1-c1ccccc1")
"criterion not met"
>>> class_assignment("CC(C)CCOc1cc(C(=O)N(C)C)nn1-c1ccccc1")
"criterion not met"
>>> class_assignment("CCCOc1cc(C(=O)N(C)C)nn1-c1ccccc1")
"criterion not met"

Prompt line: Quick check, inhibition in vivo at 100 mg/kg >= 30%? CCCCOc1cc(C(=O)N2CCCCC2)nn1-c1ccccc1
Response line: criterion not met

Prompt line: Confirm if inhibition in vivo at 100 mg/kg reported for the compound C=CCNC(=O)c1cc(OCCCC)n(-c2ccccc2)n1 is 30% or above.
Response line: criterion not met

Prompt line: Assess whether reported inhibition in vivo at 100 mg/kg for COc1cc(C(=O)N2CCN(C)CC2)nn1-c1ccccc1 sits at 30% or higher.
Response line: criterion met
